Entry source: the supplement of paper PMC12667976

B1: library; numbered along this chain (parent)
chain: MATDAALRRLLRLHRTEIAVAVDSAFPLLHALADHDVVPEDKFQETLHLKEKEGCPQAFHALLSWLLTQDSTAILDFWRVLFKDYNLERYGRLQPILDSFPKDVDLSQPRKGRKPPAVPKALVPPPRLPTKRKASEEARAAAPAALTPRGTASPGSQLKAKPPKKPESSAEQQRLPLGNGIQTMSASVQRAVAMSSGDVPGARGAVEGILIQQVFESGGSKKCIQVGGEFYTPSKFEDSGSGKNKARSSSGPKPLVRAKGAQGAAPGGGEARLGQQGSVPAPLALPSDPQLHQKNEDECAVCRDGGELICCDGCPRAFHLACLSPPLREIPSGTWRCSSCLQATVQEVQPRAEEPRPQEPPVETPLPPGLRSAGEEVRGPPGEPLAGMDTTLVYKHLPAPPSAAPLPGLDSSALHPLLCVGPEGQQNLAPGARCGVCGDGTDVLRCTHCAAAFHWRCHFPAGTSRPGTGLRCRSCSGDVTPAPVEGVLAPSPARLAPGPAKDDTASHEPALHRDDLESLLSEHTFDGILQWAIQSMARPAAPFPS

Variants of: B1
Assay: AIRE transcriptional activation functional score (insulin promoter-GFP; nonsense median 0, synonymous median 1) (normalised score); higher = higher AIRE activity (more reporter activation)
Conditions: with insulin promoter-GFP reporter in HEK293
measurement.label: AIRE transcriptional activation functional score

| variant.key | value.measured |
| --- | --- |
| E229M | 0.122 |
| S474T | 0.317 |
| R257C | -0.159 |
| R203Q | 1.13 |
| S168R | 1.36 |
| R127Q | 0.887 |
| S506L | 0.875 |
| M194H | 0.96 |
| Y85C | 0.367 |
| C434D | 0.5 |
| I209W | 0.784 |
| T344K | 1.16 |
| R113W | 0.668 |
| W335M | 1.39 |
| P163I | 1.05 |
| S107N | 0.000996 |
| T130R | 0.316 |
| A138K | 0.889 |
| P233R | 1.18 |
| C446S | -0.132 |
| L81S | 0.123 |
| G197A | 0.912 |
| P109R | 0.676 |
| A152I | 0.777 |
| G469Q | 0.807 |
| R433S | 0.734 |
| G462P | 0.607 |
| G155D | 0.338 |
| C322D | 1.77 |
| P381I | 0.705 |
| Q172N | 0.691 |
| E51H | 0.0447 |
| A193L | 0.279 |
| E363R | 1.21 |
| P405G | 0.341 |
| P129W | -0.183 |
| H396Q | 1.12 |
| E137H | 0.409 |
| N179M | 1.62 |
| Q358D | 0.761 |
| R190F | -0.277 |
| Q342R | 0.876 |
| P357L | 1.2 |
| L158A | 0.834 |
| S248T | 0.975 |
| R351T | 0.615 |
| L385C | 1.42 |
| P407R | 0.823 |
| T183E | 0.451 |
| E229G | 1.15 |
| D98E | 0.0399 |
| Q293C | 0.906 |
| S185W | 0.557 |
| G379L | 1.41 |
| E329L | 1.16 |
| G219W | 0.981 |
| I18M | 0.409 |
| A373G | 0.987 |
| L13Q | 0.368 |
| Q225A | 0.99 |
| S338K | 1.08 |
| V443E | 1.12 |
| A505P | 1.01 |
| D84H | 0.341 |
| A5F | 0.709 |
| D98M | 1.55 |
| L327C | 0.927 |
| T504Q | 1.7 |
| P355Y | 1.49 |
| A284H | 0.932 |
| G274Y | 1.07 |
| G91S | 1.19 |
| P233A | 1.09 |
| A191I | -0.149 |
| V188F | 0.939 |
| G219I | 1.35 |
| E353L | 1.18 |
| A450S | 0.883 |
